# System: THP1 luciferase reporter cells
# Procedure Details: cells
# Format: cell-based
# Condition Info: Homo sapiens, THP-1; 16 hours; read-out: THP-ISG-Luc without PFO, EC50
pEC50: −log10 of the molar value.
Measure Name: pEC50

[ask] So what's the measured pEC50 for this one? Nc1nc2c(ncn2[C@@H]2O[C@@H]3COP(=O)(O)O[C@@H]4C(O)[C@H](n5cnc6c(N)ncnc65)O[C@@H]4COP(=O)(N4CCOCC4)OC2[C@H]3O)c(=O)[nH]1 (stereo partly shown)
[reply] > 4.52

---

# Test system: THP1 luciferase reporter cells
# Procedure Details: cells
# Type: cell-based
# Condition Info: Homo sapiens, THP-1, 16 h, read-out: THP1-ISG-Luc with PFO, EC50
pEC50: −log10 of the molar value.
Measure Name: pEC50

// below: answered compounds
Nc1nc2c(ncn2[C@@H]2O[C@@H]3COP(=O)(O)OC4C(O)[C@H](n5ccc6c(N)ncnc65)O[C@@H]4COP(=O)(O)OC2C3OCC(F)(F)F)c(=O)[nH]1 (stereo in doubt) [EC3] :: 6.00 to 7.00
Nc1nc2c(ccn2[C@@H]2O[C@@H]3COP(=O)(S)OC4C(O)[C@H](n5ccc6c(N)ncnc65)O[C@@H]4COP(=O)(S)OC2C3O)c(=O)[nH]1 (single isomer, unassigned) [Example E20] :: 6.00 to 7.00
Nc1nc2c(ncn2[C@@H]2O[C@@H]3COP(=O)(S)OC4C(O)[C@H](n5cnc6c(N)ncnc65)O[C@@H]4COP(=O)(O)OC2C3O)c(=O)[nH]1 (single isomer, unassigned) [Example E6] :: > 7.00
Nc1nc2c(ncn2[C@@H]2O[C@@H]3COP(=O)(O)OC4C(O)[C@H](n5cnc6c(N)ncnc65)O[C@@H]4CNc4c(c(=O)c4=O)NC2C3O)c(=O)[nH]1 (stereo in doubt) [EC22] :: < 6.00

[ask] Please provide the recorded pEC50 for Nc1nc2c(ncn2[C@@H]2O[C@@H]3COP(=O)(O)OC4C(O)[C@H](n5ccc6c(N)ncnc65)O[C@@H]4COP(=O)(S)OC2C3OCC(F)(F)F)c(=O)[nH]1 (single isomer, unassigned) [EC2] , tested on THP1 luciferase reporter cells.
[reply] 6.00 to 7.00

Sourced from patent US11299512B2
